# target.of.assay: His-tagged recombinant human MER cytoplasmic domain (Homo sapiens, UniProt Q12866)
# Construct: His-tagged recombinant human MER cytoplasmic domain
# Sequence (Q12866 527-999 limits assumed): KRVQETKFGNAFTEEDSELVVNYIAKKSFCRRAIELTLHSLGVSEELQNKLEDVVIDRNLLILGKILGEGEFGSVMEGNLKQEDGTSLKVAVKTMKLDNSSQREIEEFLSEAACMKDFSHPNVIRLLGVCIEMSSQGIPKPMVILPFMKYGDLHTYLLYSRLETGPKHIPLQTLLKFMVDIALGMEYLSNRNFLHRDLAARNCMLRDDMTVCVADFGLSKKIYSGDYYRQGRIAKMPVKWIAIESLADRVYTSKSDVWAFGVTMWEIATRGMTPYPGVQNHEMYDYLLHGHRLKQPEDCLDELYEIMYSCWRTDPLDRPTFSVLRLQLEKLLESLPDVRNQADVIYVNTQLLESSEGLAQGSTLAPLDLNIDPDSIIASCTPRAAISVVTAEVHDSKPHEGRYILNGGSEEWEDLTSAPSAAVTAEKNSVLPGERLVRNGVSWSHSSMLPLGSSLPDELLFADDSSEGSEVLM
# method: MER Enzyme Assay (LanthaScreen Eu Kinase Binding)
# recorded.conditions: averaged IC50; MER 5 nM; 60-minute incubation at 22° C.; TR-FRET
log10 IC50: recorded values
Heads up, the numbers here are log10 of IC50 in nM units.

Reference set, count: 5
1. COc1ccc(-c2cn(C(C)C)cc(C(=O)Nc3ccc(Oc4ccnc5cc(OC)c(OC)cc45)cn3)c2=O)c(F)c1: 0.70
2. COc1cc2nccc(Oc3ccc(NC(=O)c4cn(C(C)C)cc(-c5ccc(F)cc5F)c4=O)nc3)c2cc1OC: 0.30
3. COc1cc2c(Oc3ccc(NC(=O)c4cn(C(C)C)c(C)c(-c5ccc(F)cc5)c4=O)nc3)ccnc2cc1F: 0.70
4. COc1cc2nccc(Oc3ccc(NC(=O)c4cn(CCC(C)C)cc(-c5ccc(F)cc5F)c4=O)nc3)c2cc1OC: 0.90
5. COc1cc2nccc(Oc3ccc(NC(=O)c4cn(CC(=O)N5CCOCC5)cc(-c5ccc(F)cc5F)c4=O)nc3)c2cc1OC: 1.46

Req: Would you kindly share the measured log10 IC50 for "COc1cc2nccc(Oc3ccc(NC(=O)c4cn(C)cc(-c5ccc(F)cc5)c4=O)nc3)c2cc1OC" ?
Resp: 0.48

Req: Would you kindly share the measured log10 IC50 for "COc1cc2nccc(Oc3ccc(NC(=O)c4cn(CCN(C)C)cc(-c5ccc(F)c(F)c5)c4=O)nc3)c2cc1OC" ?
Resp: 0.70
